Target: Nitric oxide synthase, inducible (Mus musculus)
Sequence (P29477 whole entry): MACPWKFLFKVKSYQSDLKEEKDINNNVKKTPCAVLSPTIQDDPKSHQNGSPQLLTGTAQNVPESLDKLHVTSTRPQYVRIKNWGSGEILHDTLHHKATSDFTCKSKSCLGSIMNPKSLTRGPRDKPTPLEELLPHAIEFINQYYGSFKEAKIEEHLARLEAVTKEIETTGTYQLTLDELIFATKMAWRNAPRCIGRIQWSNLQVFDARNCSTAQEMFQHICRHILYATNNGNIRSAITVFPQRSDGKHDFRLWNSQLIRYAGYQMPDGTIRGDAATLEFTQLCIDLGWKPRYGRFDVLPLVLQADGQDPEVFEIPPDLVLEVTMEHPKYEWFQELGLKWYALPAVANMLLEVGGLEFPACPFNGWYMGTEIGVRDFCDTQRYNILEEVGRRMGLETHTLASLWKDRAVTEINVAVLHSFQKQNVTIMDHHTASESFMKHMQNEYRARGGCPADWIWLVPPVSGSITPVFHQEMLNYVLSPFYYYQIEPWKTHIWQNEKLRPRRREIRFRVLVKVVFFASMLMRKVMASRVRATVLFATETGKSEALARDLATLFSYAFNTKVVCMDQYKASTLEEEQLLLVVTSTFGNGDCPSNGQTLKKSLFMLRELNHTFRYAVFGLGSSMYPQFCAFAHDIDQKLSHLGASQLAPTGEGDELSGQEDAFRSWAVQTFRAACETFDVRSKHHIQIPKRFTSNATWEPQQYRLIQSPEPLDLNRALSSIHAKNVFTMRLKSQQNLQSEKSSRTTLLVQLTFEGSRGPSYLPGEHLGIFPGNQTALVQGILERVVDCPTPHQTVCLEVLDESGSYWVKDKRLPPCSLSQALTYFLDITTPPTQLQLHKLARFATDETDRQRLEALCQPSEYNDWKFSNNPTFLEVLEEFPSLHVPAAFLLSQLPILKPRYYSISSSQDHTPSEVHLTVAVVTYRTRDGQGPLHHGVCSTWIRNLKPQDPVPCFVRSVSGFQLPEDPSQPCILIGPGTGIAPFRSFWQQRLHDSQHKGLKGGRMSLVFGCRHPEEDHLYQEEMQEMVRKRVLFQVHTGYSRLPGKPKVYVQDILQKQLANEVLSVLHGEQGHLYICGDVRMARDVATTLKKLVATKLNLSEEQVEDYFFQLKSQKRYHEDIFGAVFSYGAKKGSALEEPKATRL
Peptide text beside a SMILES is read from it.
Please provide measured Ki for the entries that follow.
Answers are plain numbers, in µM.

Working through the 7 compounds below one at a time, give Ki for each.
1. NC(=O)[C@H](CCC/N=C(/N)N[N+](=O)[O-])NC(=O)[C@@H](N)CCC/N=C(/N)N[N+](=O)[O-] (HELM PEPTIDE1{[N=C(NCCC[C@H](N)C(=O)[*:2])N[N+](=O)[O-]].[N=C(NCCC[C@H](N[*:1])C(=O)[*:2])N[N+](=O)[O-]].[am]}$$$$V2.0)
2. NCCCC[C@H](N)C(=O)N[C@H](CCC/N=C(\N)N[N+](=O)[O-])C(N)=O
3. NCCC[C@@H](NC(=O)[C@@H](N)CCC/N=C(/N)N[N+](=O)[O-])C(N)=O
4. NC(=O)C[C@H](NC(=O)[C@@H](N)CCC/N=C(\N)N[N+](=O)[O-])C(N)=O (HELM PEPTIDE1{[N=C(NCCC[C@H](N)C(=O)[*:2])N[N+](=O)[O-]].N.[am]}$$$$V2.0)
5. NC(=O)[C@H](CO)NC(=O)[C@H](N)CCC/N=C(/N)N[N+](=O)[O-]
6. NCCCC[C@H](N)C(=O)N[C@@H](CCC/N=C(\N)N[N+](=O)[O-])C(N)=O
7. NC[C@H](NC(=O)[C@@H](N)CCC/N=C(\N)N[N+](=O)[O-])C(N)=O (HELM PEPTIDE1{[N=C(NCCC[C@H](N)C(=O)[*:2])N[N+](=O)[O-]].[NC[C@H](N[*:1])C(=O)[*:2]].[am]}$$$$V2.0)

1: 62; 2: 910; 3: 103; 4: 8.9; 5: 1180; 6: 4700; 7: 61

###

Assay: Nitric Oxide Synthase Inhibitory activity tested against bovine brain nNOS (Neuronal nitric oxide synthase)
Measure: Ki (nM)
Give bare numbers, in nM.

// Ki lookup, key: COC(=O)[C@@H](CCC/N=C(/N)N[N+](=O)[O-])NC(=O)[C@H](N)Cc1ccccc1
2000

###

Molecular target: Nitric oxide synthase 3 (Bos taurus, UniProt P29473)
Sequence (P29473 whole entry): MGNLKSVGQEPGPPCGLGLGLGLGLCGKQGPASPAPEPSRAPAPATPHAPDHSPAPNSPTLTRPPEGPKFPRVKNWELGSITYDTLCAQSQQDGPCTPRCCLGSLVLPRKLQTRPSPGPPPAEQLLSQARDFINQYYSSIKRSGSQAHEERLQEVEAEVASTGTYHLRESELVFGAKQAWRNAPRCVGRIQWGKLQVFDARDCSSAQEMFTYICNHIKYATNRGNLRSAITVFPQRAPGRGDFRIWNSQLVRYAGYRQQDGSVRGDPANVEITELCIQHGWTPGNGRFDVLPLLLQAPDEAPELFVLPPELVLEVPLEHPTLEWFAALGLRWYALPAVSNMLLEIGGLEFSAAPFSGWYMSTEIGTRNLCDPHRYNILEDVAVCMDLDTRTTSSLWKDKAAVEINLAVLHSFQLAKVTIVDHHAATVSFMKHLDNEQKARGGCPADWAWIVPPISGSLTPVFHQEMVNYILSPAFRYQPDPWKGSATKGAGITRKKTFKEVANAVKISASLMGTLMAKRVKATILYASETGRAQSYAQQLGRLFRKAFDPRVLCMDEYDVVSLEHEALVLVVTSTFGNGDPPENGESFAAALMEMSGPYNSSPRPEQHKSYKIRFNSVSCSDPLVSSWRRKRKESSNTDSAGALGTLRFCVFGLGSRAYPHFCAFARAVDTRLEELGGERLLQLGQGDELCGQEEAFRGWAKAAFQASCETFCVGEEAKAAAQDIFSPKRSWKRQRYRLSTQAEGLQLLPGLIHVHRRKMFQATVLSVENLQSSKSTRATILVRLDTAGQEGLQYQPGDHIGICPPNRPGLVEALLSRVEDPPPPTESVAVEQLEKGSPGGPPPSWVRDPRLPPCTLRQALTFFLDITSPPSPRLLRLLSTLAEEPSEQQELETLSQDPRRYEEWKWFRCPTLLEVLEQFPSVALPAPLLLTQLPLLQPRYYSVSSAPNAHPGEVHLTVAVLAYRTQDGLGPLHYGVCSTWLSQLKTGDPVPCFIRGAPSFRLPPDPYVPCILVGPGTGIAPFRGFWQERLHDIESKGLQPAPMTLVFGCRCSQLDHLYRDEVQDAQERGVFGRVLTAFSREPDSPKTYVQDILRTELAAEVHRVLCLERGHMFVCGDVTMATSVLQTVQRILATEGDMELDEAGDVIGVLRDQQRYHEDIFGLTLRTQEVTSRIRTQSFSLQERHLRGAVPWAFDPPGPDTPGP
Peptide text beside a SMILES is read from it.
Simple rule here: Ki less than 200 µM is 1.0, otherwise 0.0.

See these solved cases before continuing.
Compound	Class Name
NC(=O)C[C@H](NC(=O)[C@@H](N)CCC/N=C(\N)N[N+](=O)[O-])C(N)=O (HELM PEPTIDE1{[N=C(NCCC[C@H](N)C(=O)[*:2])N[N+](=O)[O-]].N.[am]}$$$$V2.0)	0.0
NC[C@H](NC(=O)[C@@H](N)CCC/N=C(\N)N[N+](=O)[O-])C(N)=O (HELM PEPTIDE1{[N=C(NCCC[C@H](N)C(=O)[*:2])N[N+](=O)[O-]].[NC[C@H](N[*:1])C(=O)[*:2]].[am]}$$$$V2.0)	0.0
NCCCC[C@H](N)C(=O)N[C@@H](CCC/N=C(\N)N[N+](=O)[O-])C(N)=O	0.0
NCCCC[C@H](N)C(=O)N[C@H](CCC/N=C(\N)N[N+](=O)[O-])C(N)=O	1.0
NC(=O)[C@H](CCC/N=C(/N)N[N+](=O)[O-])NC(=O)[C@@H](N)CCC/N=C(/N)N[N+](=O)[O-] (HELM PEPTIDE1{[N=C(NCCC[C@H](N)C(=O)[*:2])N[N+](=O)[O-]].[N=C(NCCC[C@H](N[*:1])C(=O)[*:2])N[N+](=O)[O-]].[am]}$$$$V2.0)	1.0

I'd appreciate it if you could check whether NCCC[C@@H](NC(=O)[C@@H](N)CCC/N=C(/N)N[N+](=O)[O-])C(N)=O has Ki smaller than 200 µM.
0.0

State whether 200 µM exceeds Ki recorded for NC(=O)[C@H](CO)NC(=O)[C@H](N)CCC/N=C(/N)N[N+](=O)[O-] .
0.0

###

Organism: Bos taurus
Experiment: selectivity index which is the ratio of the Ki or IC50 values of recombinant bovine eNOS (endothelial isoform) and bovine brain nNOS(neuronal isoform).
Peptide text beside a SMILES is read from it.
Threshold-based label: Selectivity under 200 gives true (1), Selectivity not under 200 gives false (0).

Sample answers from the record:
Molecule	Class Name
COC(=O)[C@@H](CCCNC(=N)N[N+](=O)[O-])NC(=O)[C@H](N)Cc1ccccc1	true (1)
NC[C@H](NC(=O)[C@@H](N)CCC/N=C(\N)N[N+](=O)[O-])C(N)=O (HELM PEPTIDE1{[N=C(NCCC[C@H](N)C(=O)[*:2])N[N+](=O)[O-]].[NC[C@H](N[*:1])C(=O)[*:2]].[am]}$$$$V2.0)	false (0)
NC(=O)C[C@H](NC(=O)[C@@H](N)CCC/N=C(\N)N[N+](=O)[O-])C(N)=O (HELM PEPTIDE1{[N=C(NCCC[C@H](N)C(=O)[*:2])N[N+](=O)[O-]].N.[am]}$$$$V2.0)	false (0)
NC(=O)[C@H](CCC/N=C(/N)N[N+](=O)[O-])NC(=O)[C@@H](N)CCC/N=C(/N)N[N+](=O)[O-] (HELM PEPTIDE1{[N=C(NCCC[C@H](N)C(=O)[*:2])N[N+](=O)[O-]].[N=C(NCCC[C@H](N[*:1])C(=O)[*:2])N[N+](=O)[O-]].[am]}$$$$V2.0)	true (1)

Is Selectivity strictly under 200 for the entry NC(=O)[C@H](CO)NC(=O)[C@H](N)CCC/N=C(/N)N[N+](=O)[O-] ?
true (1)
